measured target: T1, cynomolgus monkey IGF1R on cells (cynomolgus monkey, UniProt P08069 31-1367 (human entry))
T1 construct: Expressed on CHO-S cells; also called fasIGF1R; CHO-S-fasIGF1R cells
T1 sequence (P08069 other isoform, or with tags, fused parts or gaps limits assumed): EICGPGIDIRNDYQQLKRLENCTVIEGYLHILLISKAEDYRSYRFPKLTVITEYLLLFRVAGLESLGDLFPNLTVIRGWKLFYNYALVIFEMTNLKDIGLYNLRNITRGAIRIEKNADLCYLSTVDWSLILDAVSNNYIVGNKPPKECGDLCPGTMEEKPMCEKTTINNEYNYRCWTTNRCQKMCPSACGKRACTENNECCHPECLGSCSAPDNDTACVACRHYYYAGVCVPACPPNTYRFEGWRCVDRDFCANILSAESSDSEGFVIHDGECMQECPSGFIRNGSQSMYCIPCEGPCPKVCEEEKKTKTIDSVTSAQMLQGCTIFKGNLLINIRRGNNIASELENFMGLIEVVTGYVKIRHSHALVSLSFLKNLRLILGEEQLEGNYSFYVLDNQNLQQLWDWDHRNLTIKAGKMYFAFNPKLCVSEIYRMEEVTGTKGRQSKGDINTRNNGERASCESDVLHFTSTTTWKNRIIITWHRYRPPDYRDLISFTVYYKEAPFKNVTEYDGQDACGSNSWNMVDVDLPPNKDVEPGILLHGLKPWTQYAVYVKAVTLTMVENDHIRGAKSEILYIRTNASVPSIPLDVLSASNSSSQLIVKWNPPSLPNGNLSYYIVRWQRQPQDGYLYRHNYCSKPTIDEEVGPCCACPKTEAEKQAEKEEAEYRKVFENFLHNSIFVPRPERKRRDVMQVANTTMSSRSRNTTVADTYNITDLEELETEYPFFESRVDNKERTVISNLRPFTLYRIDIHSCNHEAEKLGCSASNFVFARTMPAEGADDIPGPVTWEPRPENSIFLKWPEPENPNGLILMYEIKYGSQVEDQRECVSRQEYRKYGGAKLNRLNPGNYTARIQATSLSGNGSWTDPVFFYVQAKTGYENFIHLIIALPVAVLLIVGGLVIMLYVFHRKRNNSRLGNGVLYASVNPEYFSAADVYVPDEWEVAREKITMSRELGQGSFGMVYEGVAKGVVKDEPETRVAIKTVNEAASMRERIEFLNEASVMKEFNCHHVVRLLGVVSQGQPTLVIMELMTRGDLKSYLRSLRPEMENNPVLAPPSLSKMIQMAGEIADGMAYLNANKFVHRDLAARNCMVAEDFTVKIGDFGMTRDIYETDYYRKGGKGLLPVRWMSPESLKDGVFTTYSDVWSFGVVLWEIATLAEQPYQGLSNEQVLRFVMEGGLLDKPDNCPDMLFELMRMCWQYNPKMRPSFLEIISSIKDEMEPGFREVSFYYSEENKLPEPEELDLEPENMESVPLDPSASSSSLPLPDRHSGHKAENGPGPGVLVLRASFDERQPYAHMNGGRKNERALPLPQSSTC
procedure details: flow cytometry on CHO-S-fasIGF1R cells, antibody 20 µg/mL
In this section, each of the binders is paired with its reported Percentage of positive cells.

binder	Percentage of positive cells
anti-IGF1R antibody 12D1 (antibody, human IgG1, V domains shown) VH: QVQLVESGGGVVRPGGSLRLSCAASGFTFDDYGMSWVRQVPGKGLEWVSGINWNGGSTDYADSVKGRFTISREKAKNSLYLQMNSLRAEDTALYYCVRDRGAVTRRYYYYGMDVWGQGTTVTVSS VL: DIQMTQSPSSLSASVGDRVTITCRASQDIRNDLGWYQLKPGKAPKRLIYAASRLQSGVPSRFSGSGSGTEFTLTISSLQPEDFATYYCLQHNSYPYTFGQGTKLEIK	60.7%
anti-IGF1R antibody 10D1 (antibody, human IgG1, V domains shown) VH: QVQLQQSGGGVVRPGGSLRLSCAASGFTFADYGMSWVRQVPGKGLEWVSGINWNGGSTDYADSVKGRFTISRDNAKHSLYLQMNSLRAEDTAFYYCARDRGAVSRRYYYYGMDVWGLGTTVTVSS VL: AIQLTQSPSSLSASVGDRVTITCRASQDIRNDLGWYQLKPGKAPKRLIYAASRLQSGVPSGFSGSGSGTEFTLTISSLQPEDFATYYCLQHNSYPYTFGQGTKLEIK	64.8%
anti-IGF1R antibody 10G1 (antibody, human IgG1, V domains shown) VH: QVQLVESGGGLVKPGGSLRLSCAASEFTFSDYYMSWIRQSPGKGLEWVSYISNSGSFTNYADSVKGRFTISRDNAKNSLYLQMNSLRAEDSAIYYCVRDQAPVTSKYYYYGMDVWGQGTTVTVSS VL: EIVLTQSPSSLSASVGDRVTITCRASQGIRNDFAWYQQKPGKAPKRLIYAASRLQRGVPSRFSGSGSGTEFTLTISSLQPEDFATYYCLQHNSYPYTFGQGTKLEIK	73.9%
anti-IGF1R antibody 12A4 (antibody, V domains shown) VH: EVQLVQSGGGEIRPGGSLRLSCAASGFTFADYGMSWVRQAPGEGLEWVSEIDWTGGSKLYADSVKGRFTISRDNAKNSLFLQMNSLRAEDTALYYCVRDRGAVSPKYYYYGMDVWGQGTTVTVSS VL: EIVLTQSPSSLSASVGDRVTITCRASQGIRNDLGWYQQKPGKAPKRLIYAASRLQSGVPSRFSGSGSGTDFTLTISSLQPEDFATYYCLQHNSYPYTFGQGTKLEIK	54.4%

This collection of values is drawn from patent US20260258141A1.
